Some variants, each annotated with its measured enrichment ratio.
B1: PhoQ; a variant is named by its letters at X, in order, P23837 (parent)
chain: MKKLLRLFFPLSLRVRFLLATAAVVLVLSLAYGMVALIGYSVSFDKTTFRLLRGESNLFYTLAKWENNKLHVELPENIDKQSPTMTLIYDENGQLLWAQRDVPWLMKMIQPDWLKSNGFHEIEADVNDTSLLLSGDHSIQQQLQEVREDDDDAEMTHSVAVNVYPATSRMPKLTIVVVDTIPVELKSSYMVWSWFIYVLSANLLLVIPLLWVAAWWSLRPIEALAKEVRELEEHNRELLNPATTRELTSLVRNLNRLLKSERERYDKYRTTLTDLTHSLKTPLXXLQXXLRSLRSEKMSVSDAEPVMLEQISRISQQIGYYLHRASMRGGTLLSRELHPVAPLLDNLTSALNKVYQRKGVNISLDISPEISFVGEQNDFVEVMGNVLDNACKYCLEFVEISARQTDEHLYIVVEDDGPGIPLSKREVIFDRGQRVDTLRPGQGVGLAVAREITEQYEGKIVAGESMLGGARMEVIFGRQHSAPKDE

Variants of: B1
method.notes: enrichment ratio after two sorts for PhoP signalling (ratio (wild type AVST 3.29)); higher = more functional
condition.summary: with PhoP (E. coli)
Over roughly 140,000 sequences, “enrichment ratio after two sorts for PhoP signalling” has its median near 0; the highest 2% begin near 11. What follows is part of a selection rich in the highest values, with near analogues and random picks from the rest.
observation.type: enrichment ratio

>>> observed_result("MAHE")
"≤ 0.25"
>>> observed_result("HTRW")
"≤ 0.25"
>>> observed_result("MAYM")
9.25
>>> observed_result("NHFI")
"≤ 0.25"
>>> observed_result("FAIN")
0.294
>>> observed_result("DQQR")
"≤ 0.25"
>>> observed_result("VERW")
"≤ 0.25"
>>> observed_result("EGNN")
"≤ 0.25"
>>> observed_result("TLKM")
"≤ 0.25"
>>> observed_result("ACFV")
"≤ 0.25"
>>> observed_result("THMP")
"≤ 0.25"
>>> observed_result("NLYQ")
"≤ 0.25"
>>> observed_result("DVVV")
"≤ 0.25"
>>> observed_result("MLAN")
"≤ 0.25"
>>> observed_result("SDKP")
"≤ 0.25"
>>> observed_result("QFAV")
"≤ 0.25"
>>> observed_result("MAHI")
24.7
>>> observed_result("QDGH")
"≤ 0.25"
>>> observed_result("MAYN")
16.6
>>> observed_result("YRQK")
"≤ 0.25"
>>> observed_result("TAEP")
0.518
>>> observed_result("MNKP")
"≤ 0.25"
